system: DMS 273 small cell lung; experiment: NCI tumour cell line growth inhibition, 48 h
Readings of TGI for the listed molecules
measureName: TGI

# molecule, measureName, valueObserved
data = [
    ("C1CC2=C(C1)C1=S(S2)SC2=C1CCC2", "TGI", "> 100 µM"),
    ("COC(=O)CC(=O)NCC1=CCC(=O)CC1", "TGI", "> 100 µM"),
    ("C/C(CC(=O)Nc1ccc(NC(=O)C/C(C)=N\\NC(N)=O)cc1)=N/NC(N)=O", "TGI", "> 51.7 µM"),
    ("O/N=C\\C(=Nc1ccc(Cc2ccc(N=C(/C=N\\O)NO)cc2)cc1)NO", "TGI", "> 100 µM"),
    ("CN1CCCN2CCN(C)CCCN(CC1)CC2", "TGI", "> 100 µM"),
    ("COc1cc2c3c(c1OC)C(=O)C=C3N(S(=O)(=O)c1ccc(C)cc1)CC2", "TGI", "> 100 µM"),
]

====

system: COLO 205 colon; experiment: NCI tumour cell line growth inhibition, 48 h

# compound, GI50
records = [
    ("CCC[CH2][Sn]([CH2]CCC)([CH2]CCC)[O]C(=O)C(OC)c1ccccc1 (stereo not given)", "134 nM"),
    ("O=C(Oc1ccccc1)C(Br)C(Br)c1ccccc1 (stereo not given)", "1980 nM"),
    ("CCC[CH2][Sn]([CH2]CCC)([O]C(=O)c1cccc(F)c1F)[O]C(=O)c1cccc(F)c1F", "962 nM"),
    ("COc1cc(-c2nccc3cc4c(cc23)OCO4)cc(OC)c1OC", "> 100000 nM"),
    ("CCOC(=O)C#Cc1c(C(=O)OCC)nnn1[C@@H]1O[C@H](CO)[C@H]2OC3(CCCCC3)O[C@H]21", "1980 nM"),
]

====

tested on: NCI-H23 lung; assay: NCI tumour cell line growth inhibition, 48 h
Decision: TGI compared against 30 µM; not below it gives Satisfied, below it gives Not satisfied.

# compound, cat
rows = [
    ("O=C(Oc1ccccc1)C(Br)C(Br)c1ccccc1 (centres undefined)", "Not satisfied"),
    ("COc1ccc(CCN2C(=O)CC34C=CC(CC3C2=O)O4)cc1OC (centres undefined)", "Satisfied"),
    ("COc1cccc2nc3c(C(=O)NCCN(C)C)cccc3nc12", "Not satisfied"),
    ("O=C1/C(=C/c2ccccc2)CCCc2ccccc21", "Satisfied"),
    ("O=C(C1OC1c1cccc([N+](=O)[O-])c1)C12CC3CC(CC(C3)C1)C2 (centres undefined)", "Not satisfied"),
    ("COC(=O)CC(C(C(C)=O)C(=O)OCc1ccccc1)N1C(=O)OC(c2ccccc2)C1c1ccccc1 (centres undefined)", "Satisfied"),
    ("COC(=O)/C(=C/c1ccc(OC)cc1)C(C(=O)O)=C1CCCCC1", "Satisfied"),
    ("NCCNC(=O)CN(CC(=O)O)C1CCCCC1N(CC(=O)O)CC(=O)O (centres undefined)", "Satisfied"),
]

====

Below is a list of entries, each paired with its recorded TGI value.
system: SF-268 CNS; assay: NCI tumour cell line growth inhibition, 48 h

# compound, relationQualifier, TGI (µM)
measured = [
    ("O=c1c2c3c(sc2nc2n1N=CN(c1ccc(F)cc1)C2)CCCC3", ">", 100),
    ("CC12OC(C(=O)C13CCC3)C1C(=O)c3ccc4c(ccc5ccccc54)c3C(=O)C12 (centres undefined)", "=", 32.9),
    ("NC(CSC(c1ccccc1)(c1ccccc1)c1ccc(F)cc1)C(=O)O (centres undefined)", "=", 35.1),
    ("COC(=O)N/N=C(\\C)C(CN(C)C)C(c1ccccc1)c1c(O)c2ccccc2oc1=O (centres undefined)", ">", 100),
    ("CCC(=O)C(C(=O)CC)c1c(OC(=O)c2ccccc2)ccc(O)c1C(=O)OC", ">", 100),
    ("CCc1nc2cc(/C=C/C(=O)NO)ccc2c(=O)n1CCc1ccc(OC)cc1", "=", 13.1),
    ("CC1=C(C(=O)Nc2ccccc2)C(c2cc(Cl)cc(Cl)c2)C(C(=O)Nc2ccccc2)=C(C)N1", "=", 15.3),
    ("COc1cc2c(c(OC)c1OC)-c1ccc(SC)c(=O)cc1C(CC(=O)Oc1cccc(F)c1)C2 (centres undefined)", ">", 72.5),
    ("Cc1cc(C)nc(NS(=O)(=O)c2ccc(NC(=O)c3cc([N+](=O)[O-])cc([N+](=O)[O-])c3)cc2)n1", ">", 100),
]
